Source listed as patent US20140348834A1.

Experimental Target: T1, human IL-17A (human, UniProt Q16552 24-155)
T1 construct: Biotinylated in the ELISA; also called hIL-17; Hu IL-17A
T1 sequence (Q16552 24-155 limits assumed): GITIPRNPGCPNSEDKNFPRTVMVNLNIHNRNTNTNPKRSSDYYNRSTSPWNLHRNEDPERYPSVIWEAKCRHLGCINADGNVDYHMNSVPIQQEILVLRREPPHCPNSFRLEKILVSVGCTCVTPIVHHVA
Experimental Protocol: ELISA, captured antibody, serially diluted biotin-IL-17 (Example 1.5.1)
Response field label takes rule met when EC50 is strictly below 0.1 nM and rule not met in all other cases.

Binder	Class
IL17-G9-3 (antibody, V domains shown) VH: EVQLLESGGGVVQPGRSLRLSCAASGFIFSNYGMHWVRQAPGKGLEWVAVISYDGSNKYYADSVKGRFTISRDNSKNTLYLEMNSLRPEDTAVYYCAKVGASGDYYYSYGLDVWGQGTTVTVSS VL: QSVLTQPPSASGTPGQTVSISCSGRNSNIGSHYVHWYQQVPGAAPKLLMYDFGLRPSGVPDRFSVSQSGTSASLAISGLQSEDEADYYCATWDDMLGGYVFGTGTKVTVLG	rule met
IL17-B6-46 (antibody, V domains shown, also called pJP253 B6.1 #46VH / pJP254 B6.1 #46Vk) VH: EVQLVQSGAEVKKPGESLKISCKASGGSFISYGISWVRQAPGQGLEWMGGITHFFGSTDYAQKFQGRVTITADESTTTAYMELSGLTSDDTAVYYCAREPNEFWNGYYTTHDFDSWGQGTTVTVSS VL: EIVLTQSPDFQSVTPKEKVTITCRASQAIGSELHWYQQKPDQSPKLLIKYASYSVSGVPSRFSGSGSGTDFTLTINGLEAEDAGTYYCHQSASLPYTFGQGTKVDIK	rule not met
IL17-G9-M1 (antibody, V domains shown) VH: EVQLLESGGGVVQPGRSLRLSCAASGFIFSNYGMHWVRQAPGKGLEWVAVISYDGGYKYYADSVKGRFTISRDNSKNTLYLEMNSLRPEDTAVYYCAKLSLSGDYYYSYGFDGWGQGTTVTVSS VL: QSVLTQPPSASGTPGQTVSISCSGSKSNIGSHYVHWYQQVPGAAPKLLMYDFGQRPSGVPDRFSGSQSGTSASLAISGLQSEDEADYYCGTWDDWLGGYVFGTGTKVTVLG	rule met
IL17-LN-K9-F5 (antibody, V domains shown, Fully human monoclonal antibody from mRNA display) VH: EVQLVQSGAEVKNPGASVKVSCKVSGSRLSDLAMHWVRQAPGKGPEWMGGFDPDEGETVYAQNFQGRVSMTEDTSSDTAYMELNSLRSEDTAVYYCATIRPWLGGAYYFDNWGQGTLVTVSS VL: ETTLTQSPAFMSATPGDKVNISCKASQDIDDDMNWYQQKPGEAALFIIQEATTLVPGIPPRFSGSGYGTDFTLTVNNIQSEDAAYYFCLQHDSFPYTFGQGTKLEIKR	rule not met
IL17-B6-17 (antibody, V domains shown, also called pJP249 B6.1 #17VH / pJP252 B6.1 #17Vk) VH: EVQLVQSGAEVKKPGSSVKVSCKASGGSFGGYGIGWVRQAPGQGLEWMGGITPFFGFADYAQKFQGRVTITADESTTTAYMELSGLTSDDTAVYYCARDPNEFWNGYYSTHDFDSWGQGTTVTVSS VL: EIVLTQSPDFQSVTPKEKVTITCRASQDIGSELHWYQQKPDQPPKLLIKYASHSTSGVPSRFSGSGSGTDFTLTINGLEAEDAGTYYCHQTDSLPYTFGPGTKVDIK	rule not met
IL17-B6-15 (antibody, V domains shown, also called pJP245 B6.1 #15VH / pJP246 B6.1 #15Vk) VH: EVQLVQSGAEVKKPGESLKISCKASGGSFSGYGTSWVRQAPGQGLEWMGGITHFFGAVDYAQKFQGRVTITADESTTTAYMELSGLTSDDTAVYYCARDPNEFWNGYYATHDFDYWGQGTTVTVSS VL: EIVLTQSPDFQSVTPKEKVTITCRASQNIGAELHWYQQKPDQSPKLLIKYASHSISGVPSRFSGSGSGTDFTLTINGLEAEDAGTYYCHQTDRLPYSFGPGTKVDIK	rule not met
IL17-G9-4 (antibody, V domains shown, no own VH entry is printed) VH: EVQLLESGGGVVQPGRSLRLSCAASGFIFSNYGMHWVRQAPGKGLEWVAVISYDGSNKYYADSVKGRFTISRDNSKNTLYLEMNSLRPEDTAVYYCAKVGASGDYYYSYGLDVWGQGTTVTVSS VL: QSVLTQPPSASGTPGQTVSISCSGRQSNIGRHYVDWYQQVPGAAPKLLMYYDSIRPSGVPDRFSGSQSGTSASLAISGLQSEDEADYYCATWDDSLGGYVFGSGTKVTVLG	rule met
IL17-B6-18 (antibody, V domains shown, also called pJP251 B6.1 #18VH / pJP250 B6.1 #18Vk) VH: EVQLVQSGAEVKKPGESLKVSCKASGGRFRTYGISWVRQAPGQGLEWMGGITNFFGWTDYAQKFQGRVTITADESTTTAYMELSGLTSDDTAVYYCARVPNEFWNGYYATDYFDNWGQGTTVTVSS VL: EIVLTQSPDFQSVTPKEKVTITCRASQEIGASLHWYQQKPDQSPKLLIKYASHSASGVPSRFSGSGSGTDFTLTINSLEAEDAATYYCHQSDGLPYTFGQGTKVDIK	rule not met
IL17-B6-29 (antibody, V domains shown) VH: EVQLVQSGAEVKKPGSSVKVSCKASGGSFISYGYNWVRQAPGQGLEWMGGITPFFGTADYAQKFQGRVTITADESTTTAYMELSGLTSDDTAVYYCAREPNDFWNGYYTTHHFDYWGQGTTVTVSS VL: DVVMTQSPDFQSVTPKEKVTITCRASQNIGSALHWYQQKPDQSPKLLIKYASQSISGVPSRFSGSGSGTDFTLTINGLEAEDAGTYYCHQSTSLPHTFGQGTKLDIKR	rule met
IL17-G9-2 (antibody, V domains shown) VH: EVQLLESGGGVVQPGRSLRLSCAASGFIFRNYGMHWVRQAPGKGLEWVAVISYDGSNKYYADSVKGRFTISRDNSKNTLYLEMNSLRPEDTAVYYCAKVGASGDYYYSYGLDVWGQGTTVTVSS VL: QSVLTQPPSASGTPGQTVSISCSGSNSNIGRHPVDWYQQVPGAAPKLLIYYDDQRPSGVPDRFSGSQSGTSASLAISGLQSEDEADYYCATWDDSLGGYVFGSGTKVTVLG	rule not met
